In this section, each of the binders is paired with its reported C3b CFA: Time (min.) for 50% cleavage of C3B α′-chain.
Assay System: C3b (UniProt P01024)
Sequence (P01024 23-667 limits assumed, chain 1 of 2): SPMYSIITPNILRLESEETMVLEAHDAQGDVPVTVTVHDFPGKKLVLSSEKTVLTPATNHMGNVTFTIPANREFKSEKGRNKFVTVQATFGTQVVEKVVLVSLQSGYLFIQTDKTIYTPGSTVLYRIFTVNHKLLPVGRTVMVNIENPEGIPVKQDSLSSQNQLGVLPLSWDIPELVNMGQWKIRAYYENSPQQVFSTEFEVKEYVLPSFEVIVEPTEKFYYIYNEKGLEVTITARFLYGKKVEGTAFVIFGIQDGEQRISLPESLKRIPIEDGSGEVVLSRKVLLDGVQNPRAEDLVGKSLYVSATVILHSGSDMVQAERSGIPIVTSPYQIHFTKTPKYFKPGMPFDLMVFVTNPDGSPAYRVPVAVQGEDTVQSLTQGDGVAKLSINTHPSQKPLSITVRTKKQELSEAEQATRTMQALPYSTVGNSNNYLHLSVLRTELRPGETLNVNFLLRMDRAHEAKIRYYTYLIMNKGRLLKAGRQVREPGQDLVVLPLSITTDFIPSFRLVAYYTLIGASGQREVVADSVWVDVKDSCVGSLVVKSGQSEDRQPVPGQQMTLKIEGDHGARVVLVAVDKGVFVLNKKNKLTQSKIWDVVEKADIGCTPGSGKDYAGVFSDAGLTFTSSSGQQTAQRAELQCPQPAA
Sequence (P01024 749-1663 limits assumed, chain 2 of 2): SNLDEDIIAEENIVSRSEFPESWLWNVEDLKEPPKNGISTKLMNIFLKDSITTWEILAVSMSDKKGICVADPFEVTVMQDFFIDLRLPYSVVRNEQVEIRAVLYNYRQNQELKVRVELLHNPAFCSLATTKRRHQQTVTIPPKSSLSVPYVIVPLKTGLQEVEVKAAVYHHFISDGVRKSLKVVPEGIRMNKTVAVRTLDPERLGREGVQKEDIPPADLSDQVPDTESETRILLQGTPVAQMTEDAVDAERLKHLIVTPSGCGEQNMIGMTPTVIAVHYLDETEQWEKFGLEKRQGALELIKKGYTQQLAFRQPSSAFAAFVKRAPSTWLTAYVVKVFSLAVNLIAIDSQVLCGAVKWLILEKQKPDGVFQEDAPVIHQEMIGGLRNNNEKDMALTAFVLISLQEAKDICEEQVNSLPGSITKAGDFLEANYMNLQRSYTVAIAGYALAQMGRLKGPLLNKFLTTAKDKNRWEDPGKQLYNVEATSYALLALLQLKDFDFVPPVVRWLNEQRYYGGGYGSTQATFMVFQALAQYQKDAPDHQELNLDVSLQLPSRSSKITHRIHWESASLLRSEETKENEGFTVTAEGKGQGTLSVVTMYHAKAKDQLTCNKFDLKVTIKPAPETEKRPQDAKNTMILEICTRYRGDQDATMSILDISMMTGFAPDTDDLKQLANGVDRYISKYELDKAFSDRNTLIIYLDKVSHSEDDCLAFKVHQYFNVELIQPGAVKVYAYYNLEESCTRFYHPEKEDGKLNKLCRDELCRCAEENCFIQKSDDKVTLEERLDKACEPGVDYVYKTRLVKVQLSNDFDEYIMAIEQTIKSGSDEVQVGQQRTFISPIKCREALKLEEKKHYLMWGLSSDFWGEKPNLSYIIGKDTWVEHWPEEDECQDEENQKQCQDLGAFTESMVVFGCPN
Experiment Description: cell-based or functional assay
Express the result in min but write the number alone.

Example cases with answers are listed next.
INSERT INTO assay_data (binder, measured_value) VALUES
  ('D2D3M3M4 (Multi-5) or DCP (decay-cofactor protein) (protein) CEVPTRLNSASLKQPYITQNYFPVGTVVEYECRPGYRREPSLSPKLTCLQNLKWSTAVEFCKKKSCPNPGEIRNGQIDVPGGILFGATISFSCNTGYKLIGSTSSFCLISGSSVQWSDKLPICEKVLCTPPPKIKNGKHTFSEVEVFEYLDAVTYSCDPAPGPDPFSLIGESTIYCGDNSVWSRAAPECKVVKCRFPVVENGKQISGFGKKFYYKATVMFECDKGFYLDGSDTIVCDSNSTWDPPVPKCLKVL', 3.3),
  ('D2D3M3M4 (P216K) (protein) CEVPTRLNSASLKQPYITQNYFPVGTVVEYECRPGYRREPSLSPKLTCLQNLKWSTAVEFCKKKSCPNPGEIRNGQIDVPGGILFGATISFSCNTGYKLFGSTSSFCLISGSSVQWSDKLPECREIYCTPPPKIKNGKHTFSEVEVFEYLDAVTYSCDPAPGPDPFSLIGESTIYCGDNSVWSRAAPECKVVKCRFPVVENGKQISGFGKKFYYKATVMFECDKGFYLDGSDTIVCDSNSTWDPPVPKCLKVL', 30.1);

Asked: Requested field: C3b CFA: Time (min.) for 50% cleavage of C3B α′-chain. Item: D2D3M3M4 (T200Y) (protein) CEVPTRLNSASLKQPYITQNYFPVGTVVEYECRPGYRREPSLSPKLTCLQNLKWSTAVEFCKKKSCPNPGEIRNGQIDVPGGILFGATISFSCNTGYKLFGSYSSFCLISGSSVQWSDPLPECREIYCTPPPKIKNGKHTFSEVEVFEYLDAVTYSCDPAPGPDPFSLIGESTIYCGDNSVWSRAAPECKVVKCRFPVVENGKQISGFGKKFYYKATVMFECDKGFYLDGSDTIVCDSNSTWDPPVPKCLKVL
Given back: 103
